Reference source: patent US20240116985A1

Measured chromatographic logD, listed per entry.
- experiment: CHI Log D procedure
- Type: physicochemical
- run-conditions: pH 7.4, CHI Log D
// no unit string in output, number only

Q: Could you share which chromatographic logD value was measured for C#CCOCCOCCC(=O)NCCCC[C@H](NC(=O)[C@H](CCC(N)=O)NC(=O)[C@H](Cc1csc2ccccc12)NC(=O)[C@H](Cc1ccsc1)NC(=O)[C@]12CCN(C1)C(=O)OCCCC=CCCCC1(CCCC=CC[C@]3(CCCN3C(C)=O)C(=O)N[C@@H](CC(=O)O)C(=O)N[C@@H](CC(C)(C)C)C(=O)N1)C(=O)N[C@@H](CC(=O)O)C(=O)N[C@@H](CC(=O)O)C(=O)N[C@@H](C)C(=O)N[C@@H](C)C(=O)N[C@@H](Cc1ccccc1)C(=O)N[C@@H](CC(N)=O)C(=O)N2)C(N)=O (some centres unmarked) ?
A: 1.94

* * *

Measured IC50, listed per entry.
- tested-system: full-length beta-Catenin (Uniprot ID P35222) (Homo sapiens)
- Construct: 10 nM full-length beta-Catenin (Uniprot ID P35222)
- Sequence (P35222 whole entry): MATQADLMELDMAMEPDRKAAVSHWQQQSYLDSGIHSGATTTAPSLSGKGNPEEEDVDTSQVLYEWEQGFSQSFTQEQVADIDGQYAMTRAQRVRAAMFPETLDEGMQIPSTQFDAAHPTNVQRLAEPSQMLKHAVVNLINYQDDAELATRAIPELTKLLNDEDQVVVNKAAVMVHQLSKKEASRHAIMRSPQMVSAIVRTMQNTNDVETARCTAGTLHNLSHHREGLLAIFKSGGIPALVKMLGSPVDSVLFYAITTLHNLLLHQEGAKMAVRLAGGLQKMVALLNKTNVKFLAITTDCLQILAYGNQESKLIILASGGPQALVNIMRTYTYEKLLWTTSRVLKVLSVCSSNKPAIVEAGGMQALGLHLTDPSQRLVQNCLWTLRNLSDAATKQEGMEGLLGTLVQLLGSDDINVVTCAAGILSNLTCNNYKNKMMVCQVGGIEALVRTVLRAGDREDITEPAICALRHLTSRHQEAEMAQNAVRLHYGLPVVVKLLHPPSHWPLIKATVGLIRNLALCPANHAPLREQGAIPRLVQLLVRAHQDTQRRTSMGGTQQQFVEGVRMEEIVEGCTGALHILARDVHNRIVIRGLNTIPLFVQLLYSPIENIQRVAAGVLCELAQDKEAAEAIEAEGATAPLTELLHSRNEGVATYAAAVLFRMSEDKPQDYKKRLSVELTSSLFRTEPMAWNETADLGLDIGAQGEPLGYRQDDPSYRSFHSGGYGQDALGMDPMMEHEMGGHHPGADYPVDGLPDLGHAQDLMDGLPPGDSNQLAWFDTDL
- experiment: Fluorescence polarization IC50 (beta-catenin / 5FAM-TCF4 10-53 competition)
- Assay type: binding
- run-conditions: fluorescence polarization, beta-catenin; read-out: FP EC50
Field format: number, assumed nM, no unit text.

Consider the reported IC50 for these compounds:
| compound | measure-name | reading |
| --- | --- | --- |
| CC(=O)N1CCC[C@]12CC=CCCCC1(CCCC=CCCCOC(=O)N3CC[C@@](C(=O)N[C@@H](Cc4ccccc4)C(=O)N[C@@H](Cc4csc5ccccc45)C(=O)N[C@@H](CCC(N)=O)C(N)=O)(C3)NC(=O)[C@H](CC(C)C)NC(=O)[C@H](Cc3ccccc3)NC(=O)[C@H](C)NC(=O)[C@H](C)NC(=O)[C@H](CCC(=O)O)NC(=O)[C@H](CC(=O)O)NC1=O)NC(=O)[C@H](CC(C)(C)C)NC(=O)[C@H](CC(=O)O)NC2=O (stereo partly drawn) [I-1074] | IC50 | 498 |
| CCN(CC(=O)O)C[C@@H]1NC(=O)[C@H](CC(=O)O)NC(=O)C2(CCCC=CCCCOC(=O)N3CC[C@@](C(=O)N[C@@H](Cc4ccsc4)C(=O)N[C@@H](Cc4csc5ccccc45)C(=O)N[C@@H](CCC(N)=O)C(N)=O)(C3)NC(=O)[C@H](Cc3ccccc3)NC(=O)[C@H](Cc3ccccc3)NC(=O)[C@H](C)NC(=O)[C@H](C)NC1=O)CCCC=CC[C@]1(CCCN1C(C)=O)C(=O)N[C@@H](CC(=O)O)C(=O)N[C@@H](CC(C)(C)C)C(=O)N2 (stereo partly drawn) [I-971] | IC50 | 1610 |

As a next step, examine the compound that follows.
Q: Given the entry CC(=O)N1CCC[C@]12CC=CCCCC1(CCCC=CCOC(=O)N(C)CCC[C@@](C)(C(=O)N[C@@H](Cc3ccccc3)C(=O)N[C@@H](Cc3c[nH]c4ccccc34)C(=O)N[C@@H](CCC(N)=O)C(N)=O)NC(=O)[C@H](C(C)C)NC(=O)[C@H](Cc3ccccc3)NC(=O)[C@H](C)NC(=O)[C@H](C)NC(=O)[C@H](CC(=O)O)NC(=O)[C@H](CC(=O)O)NC1=O)NC(=O)[C@H](C)NC(=O)[C@H](CC(=O)O)NC2=O (stereo partly drawn) , what IC50 was observed with full-length beta-Catenin (Uniprot ID P35222) (Homo sapiens)?
A: 3190
